tested on: TK-10 renal; test: NCI-60 one-dose screen, 48 h (100 = growth as untreated, 0 = no growth, -100 = all killed); details: 10 µM unless noted
About 83,000 compounds went through this panel and 20% of them were active in at least one assay; those are over-represented in the sample as a whole.
growth overview
Numeric answer only, unit % assumed.

# compound, assayed target, measured metric, unit annotation, reported result
data = [
    ("CC/C(Cc1ccccc1)=C(\\c1ccc(OCCN2CCCC2)cc1)c1ccc(OC(=O)NCc2ccccc2)cc1", "TK-10 renal", "growth", "%", 84.7),
    ("Cc1nc2ccccc2c(=O)n1-c1ccccc1F", "TK-10 renal", "growth", "%", 98),
    ("O=S(OO)c1cc(Cl)c(O)c(Cl)c1 (configuration not stated)", "TK-10 renal", "growth", "%", 100),
    ("CCOC(=O)P(=O)(OCC)OCC", "TK-10 renal", "growth", "%", 107),
]

Problem: Consider the compound shown here: `CO/N=C1\CC[C@]2(C)[C@H]3CC[C@]4(C)C(=O)CC[C@H]4[C@@H]3C[C@@H]3SC(N)=N[C@@]32C1` What is its recorded growth?
Result: 116

Problem: What do you get for `C/C(=C(\c1ccc(OCCN2CCOCC2)cc1)c1ccc(OC(=O)Cc2ccccc2)cc1)c1ccc(Cl)cc1` ?
Result: 90.8

Problem: Query `COc1ccc(N)cc1N` next
Result: 148

Problem: Next record, please: `O=NN1CCCCC1`
Result: 110

Problem: Next record, please: C[N+]1(C)CCCC1c1cccnc1 (configuration not stated)
Result: 111

Problem: Now the same for `O=C1CN2CCC1CC2`
Result: 106

Problem: Please give the result for CC[C@H](C)[C@H](NC(=O)CN(C)C)C(=O)N(C)[C@H](C[C@@H](OC(C)=O)c1nc(C(=O)NC23C4C5C2C2C3C4C52C(=O)OC)cs1)C(C)C (some centres not stated) too.
Result: 57.7

Problem: What would you report for `NC(=O)Oc1cc(OC(N)=O)cc(N(CCCl)CCCl)c1` ?
Result: 103

Problem: Again, but for `Nc1cccnc1`
Result: 102
